# target: KIF5B-RET-BaF3 (Homo sapiens, UniProt P07949)
# Construct: fused on or other part: P33176 (Kinesin-1 heavy chain)
# Sequence (P07949 whole entry, change not shown, the tested form may be a part): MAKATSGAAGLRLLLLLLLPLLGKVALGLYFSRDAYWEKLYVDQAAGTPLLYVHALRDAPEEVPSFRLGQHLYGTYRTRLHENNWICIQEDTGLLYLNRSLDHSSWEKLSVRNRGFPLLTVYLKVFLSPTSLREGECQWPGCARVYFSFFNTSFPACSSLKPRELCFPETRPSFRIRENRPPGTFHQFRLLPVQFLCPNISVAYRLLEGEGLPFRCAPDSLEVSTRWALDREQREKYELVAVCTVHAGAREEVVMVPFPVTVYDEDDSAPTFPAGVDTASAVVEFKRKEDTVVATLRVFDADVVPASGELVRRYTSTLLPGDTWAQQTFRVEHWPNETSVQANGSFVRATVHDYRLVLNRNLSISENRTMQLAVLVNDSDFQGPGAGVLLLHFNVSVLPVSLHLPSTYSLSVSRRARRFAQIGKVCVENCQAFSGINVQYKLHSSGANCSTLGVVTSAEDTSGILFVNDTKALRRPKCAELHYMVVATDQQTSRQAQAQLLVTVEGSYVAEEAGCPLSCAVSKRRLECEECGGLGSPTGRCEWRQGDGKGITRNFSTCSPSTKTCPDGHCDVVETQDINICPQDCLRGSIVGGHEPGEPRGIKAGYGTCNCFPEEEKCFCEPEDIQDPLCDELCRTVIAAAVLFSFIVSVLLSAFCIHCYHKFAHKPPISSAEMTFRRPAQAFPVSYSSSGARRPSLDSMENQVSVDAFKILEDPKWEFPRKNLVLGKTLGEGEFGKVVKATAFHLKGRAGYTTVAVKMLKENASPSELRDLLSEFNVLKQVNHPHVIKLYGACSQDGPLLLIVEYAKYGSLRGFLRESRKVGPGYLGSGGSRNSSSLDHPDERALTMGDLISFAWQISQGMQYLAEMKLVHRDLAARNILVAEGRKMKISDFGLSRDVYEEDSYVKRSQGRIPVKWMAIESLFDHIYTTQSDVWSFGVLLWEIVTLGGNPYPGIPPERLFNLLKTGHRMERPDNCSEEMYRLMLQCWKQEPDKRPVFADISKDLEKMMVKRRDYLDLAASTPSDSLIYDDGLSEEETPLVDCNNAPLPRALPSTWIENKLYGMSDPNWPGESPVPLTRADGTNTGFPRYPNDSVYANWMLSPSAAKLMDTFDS
# assay name: Growth inhibition of KIF5B-RET-BaF3 cells stably transfected with kinase (MTS)
# Type: cell-based
# applied conditions: 48 h, read-out: KIF5B-RET (IC50/nM)
log10 GI50 for assorted molecules
measured parameter: log10 GI50 (log10 of the value in nM)

INSERT INTO assay_data (molecule, target, assay_result) VALUES
  ('Cc1ccc(C(=O)Nc2ccc(CN3CCN(C)CC3)c(C(F)(F)F)c2)cc1Oc1nc(N2CC(C)OC(C)C2)nc2ccn(C)c12 (stereo not shown)', 'KIF5B-RET-BaF3 (Homo sapiens, UniProt P07949)', 3.57),
  ('CCS(=O)(=O)NC1CCN(c2ccc(NC(=O)c3ccc(C)c(Oc4nc(-c5cccnc5)nc5c4cnn5C)c3)cc2C(F)(F)F)CC1', 'KIF5B-RET-BaF3 (Homo sapiens, UniProt P07949)', 1.84),
  ('Cc1ccc(C(=O)Nc2ccc(CN3CCN(C)CC3)c(C(F)(F)F)c2)cc1Oc1nc(-c2cccc(Cl)c2)nc2cc[nH]c12', 'KIF5B-RET-BaF3 (Homo sapiens, UniProt P07949)', 3.61),
  ('Cc1ccc(Oc2nc(-c3ccsc3)nc3c2ncn3C)cc1NC(=O)c1ccc(CN2CCN(C)CC2)c(C(F)(F)F)c1', 'KIF5B-RET-BaF3 (Homo sapiens, UniProt P07949)', 3.16),
  ('Cc1ccc(Oc2nc(-c3ccc(N)cc3)nc3c2ncn3C)cc1NC(=O)c1ccc(CN2CCN(C)CC2)c(C(F)(F)F)c1', 'KIF5B-RET-BaF3 (Homo sapiens, UniProt P07949)', 3.37),
  ('CNc1nc(Oc2cc(C(=O)Nc3ccc(CN4CCN(C)CC4)c(C(F)(F)F)c3)ccc2C)c2c(ccn2C)n1', 'KIF5B-RET-BaF3 (Homo sapiens, UniProt P07949)', 3.51),
  ('CN1CCN(Cc2ccc(NC(=O)c3cccc(Oc4cc(-c5ccncc5)nc5[nH]ccc45)c3)cc2C(F)(F)F)CC1', 'KIF5B-RET-BaF3 (Homo sapiens, UniProt P07949)', 2.23);

* * *

# target: KIF5B-RET-BaF3 (Homo sapiens, UniProt P07949)
# Construct: fused on or other part: P33176 (Kinesin-1 heavy chain)
# assay name: Growth inhibition of KIF5B-RET-BaF3 cells stably transfected with kinase (MTS)
# Assay type: cell-based
# applied conditions: 48 h, read-out: KIF5B-RET (IC50/nM)
measured parameter: GI50

INSERT INTO results (compound, assay_result) VALUES
  ('CN1CCN(Cc2ccc(NC(=O)c3cccc(Oc4cc(-c5cccnc5)nc5c4ccn5C)c3)cc2C(F)(F)F)CC1 [V-I-3]', '595 nM'),
  ('CN1CCN(Cc2cc(NC(=O)c3cccc(Oc4nc(-c5cccnc5)nc5cc[nH]c45)c3)cc(C(F)(F)F)c2)CC1 [III-p-1]', '2920 nM'),
  ('CN1CCN(Cc2ccc(C(=O)Nc3cc(Oc4nc(-c5ccccc5)nc5ccn(C)c45)ccc3Cl)cc2C(F)(F)F)CC1 [III-k-18]', '3990 nM'),
  ('Cc1ccc(-c2nc(Oc3ccc(Cl)c(NC(=O)c4ccc(CN5CCN(C)CC5)c(C(F)(F)F)c4)c3)c3[nH]ccc3n2)cc1 [III-k-15]', '2380 nM'),
  ('Cc1ccc(Oc2nc(-c3ccncc3)nc3ccn(C)c23)cc1NC(=O)c1ccc(CN2CCN(C)CC2)c(C(F)(F)F)c1 [III-j-6]', '13.2 nM'),
  ('CN1CCN(Cc2ccc(NC(=O)c3cc(Oc4cc(-c5cccnc5)nc5sccc45)ccc3Cl)cc2C(F)(F)F)CC1 [VII-o-1]', '1630 nM'),
  ('Cc1ccc(C(=O)Nc2ccc(CN3CCN(C)CC3)c(C(F)(F)F)c2)cc1Oc1nc(-c2ccsc2)nc2c1cnn2C [II-m-10]', '36.4 nM');

* * *

# target: CCDC6-RET-BaF3 (Homo sapiens, UniProt P07949)
# Construct: fused on or other part: Q16204 (Coiled-coil domain-containing protein 6)
# Sequence (P07949 whole entry, change not shown, the tested form may be a part): as above
# assay name: Growth inhibition of CCDC6-RET-BaF3 cells stably transfected with kinase (MTS)
# Assay type: cell-based
# applied conditions: 48 h, read-out: CCDC6-RET (IC50/nM)
Here, each record is paired with measured GI50 data.
measured parameter: GI50 (nM)

INSERT INTO assay_data (smiles_representation, target, unit_tag, assay_result) VALUES
  ('CN1CCN(Cc2ccc(NC(=O)c3cc(Oc4nc(-c5cccc(N)c5)nc5c4ncn5C)ccc3Cl)cc2C(F)(F)F)CC1', 'CCDC6-RET-BaF3 (Homo sapiens, UniProt P07949)', 'nM', 1590),
  ('CN1CCN(Cc2ccc(NC(=O)c3cccc(Oc4cc(-c5cccnc5)nc5sccc45)c3)cc2C(F)(F)F)CC1', 'CCDC6-RET-BaF3 (Homo sapiens, UniProt P07949)', 'nM', 1020),
  ('CN1CCN(Cc2ccc(NC(=O)c3cc(Oc4nc(-c5cccnc5)nc5ccn(C)c45)ccc3Cl)cc2C(F)(F)F)CC1', 'CCDC6-RET-BaF3 (Homo sapiens, UniProt P07949)', 'nM', 1280),
  ('Cc1ccc(Oc2nc(-c3ccncc3)nc3cc[nH]c23)cc1NC(=O)c1ccc(CN2CCN(C)CC2)c(C(F)(F)F)c1', 'CCDC6-RET-BaF3 (Homo sapiens, UniProt P07949)', 'nM', 6.06),
  ('Cc1ccc(Oc2nc(-c3ccncc3)nc3cc[nH]c23)cc1C(=O)Nc1cc(CN2CCN(C)CC2)cc(C(F)(F)F)c1', 'CCDC6-RET-BaF3 (Homo sapiens, UniProt P07949)', 'nM', 386),
  ('Cc1ccc(C(=O)Nc2ccc(CN3CCN(C)CC3)c(C(F)(F)F)c2)cc1Oc1nc(-c2cccnc2)nc2cc[nH]c12', 'CCDC6-RET-BaF3 (Homo sapiens, UniProt P07949)', 'nM', 4500),
  ('Cc1ccc(C(=O)Nc2cc(CN3CCN(C)CC3)cc(C(F)(F)F)c2)cc1Oc1nc(-c2ccncc2)nc2ccn(C)c12', 'CCDC6-RET-BaF3 (Homo sapiens, UniProt P07949)', 'nM', 901),
  ('CN1CCN(Cc2cc(NC(=O)c3cccc(Oc4nc(-c5ccncc5)nc5c4cnn5C)c3)cc(C(F)(F)F)c2)CC1', 'CCDC6-RET-BaF3 (Homo sapiens, UniProt P07949)', 'nM', 458),
  ('Cc1ccc(C(=O)Nc2ccc(CN3CCN(C)CC3)c(C(F)(F)F)c2)cc1Oc1nc(-c2ccncc2)nc2c1cnn2C(C)C', 'CCDC6-RET-BaF3 (Homo sapiens, UniProt P07949)', 'nM', 1100),
  ('Cc1ccc(Oc2nc(-c3ccc(O)cc3)nc3cc[nH]c23)cc1NC(=O)c1ccc(CN2CCN(C)CC2)c(C(F)(F)F)c1', 'CCDC6-RET-BaF3 (Homo sapiens, UniProt P07949)', 'nM', 1720),
  ('Cc1ccc(Oc2nc(-c3ccncc3)nc3c2ncn3C)cc1NC(=O)c1ccc(CN2CCN(C)CC2)c(C(F)(F)F)c1', 'CCDC6-RET-BaF3 (Homo sapiens, UniProt P07949)', 'nM', 0.741),
  ('Cc1ccc(C(=O)Nc2ccc(CN3CCN(C)CC3)c(C(F)(F)F)c2)cc1Oc1nc(-c2ccoc2)nc2ccn(C)c12', 'CCDC6-RET-BaF3 (Homo sapiens, UniProt P07949)', 'nM', 3150),
  ('Cc1ccc(Oc2nc(-c3ccncc3)nc3c2ncn3C(C)C)cc1C(=O)Nc1ccc(CN2CCN(C)CC2)c(C(F)(F)F)c1', 'CCDC6-RET-BaF3 (Homo sapiens, UniProt P07949)', 'nM', 163),
  ('Cc1ccc(-c2nc(Oc3ccc(Cl)c(NC(=O)c4ccc(CN5CCN(C)CC5)c(C(F)(F)F)c4)c3)c3[nH]ccc3n2)cc1', 'CCDC6-RET-BaF3 (Homo sapiens, UniProt P07949)', 'nM', 2200);

* * *

# target: KIF5B-RET-BaF3 (Homo sapiens, UniProt P07949)
# Construct: fused on or other part: P33176 (Kinesin-1 heavy chain)
# assay name: Growth inhibition of KIF5B-RET-BaF3 cells stably transfected with kinase (MTS)
# Assay type: cell-based
# applied conditions: 48 h, read-out: KIF5B-RET (IC50/nM)
Items are presented alongside their recorded GI50.
measured parameter: GI50 (nM)

INSERT INTO measurements (smiles_representation, assay_result) VALUES
  ('Cc1ccc(Oc2nc(-c3cccnc3)nc3c2ncn3C)cc1C(=O)Nc1ccc(CN2CCN(C)CC2)c(C(F)(F)F)c1', 3640),
  ('CC(=O)NC1CCN(c2ccc(NC(=O)c3ccc(C)c(Oc4nc(-c5ccncc5)nc5ccn(C)c45)c3)cc2C(F)(F)F)CC1', 1750),
  ('CN1CCN(Cc2ccc(NC(=O)c3cccc(Oc4nc(-c5ccncc5)nc5[nH]cnc45)c3)cc2C(F)(F)F)CC1', 1950),
  ('CCC(=O)NCC1CCN(c2ccc(NC(=O)c3ccc(C)c(Oc4nc(-c5cccnc5)nc5[nH]ncc45)c3)cc2C(F)(F)F)CC1', 3070),
  ('Cc1ccc(Oc2nc(-c3ccsc3)nc3cc[nH]c23)cc1NC(=O)c1ccc(CN2CCN(C)CC2)c(C(F)(F)F)c1', 1720),
  ('Cc1ccc(C(=O)Nc2ccc(CN3CCN(C)CC3)c(C(F)(F)F)c2)cc1Oc1nc(-c2ccccc2)nc2cc[nH]c12', 2410),
  ('CN1CCN(Cc2ccc(NC(=O)c3cc(Oc4nc(-c5ccsc5)nc5nn(C)cc45)ccc3Cl)cc2C(F)(F)F)CC1', 1620),
  ('Cc1ccc(C(=O)Nc2cccc(C(F)(F)F)c2)cc1Oc1nc(-c2cccnc2)nc2c1cnn2C', 2240),
  ('Cc1ccc(NC(=O)c2ccc(CN3CCN(C)CC3)c(C(F)(F)F)c2)cc1Oc1nc(-c2cccnc2)nc2c1cnn2C', 411),
  ('Cc1cn(-c2cc(NC(=O)c3ccc(C)c(Oc4nc(-c5ccncc5)nc5c4cnn5C)c3)cc(C(F)(F)F)c2)cn1', 2620),
  ('Cc1ccc(C(=O)Nc2ccc(CN3CCN(C)CC3)c(C(F)(F)F)c2)cc1Oc1cc(-c2ccncc2)nc2c1ccn2C', 811),
  ('CN1CCN(Cc2ccc(C(=O)Nc3cc(Oc4nc(-c5ccc(Cl)cc5)nc5cc[nH]c45)ccc3Cl)cc2C(F)(F)F)CC1', 1550),
  ('CCS(=O)(=O)NC1CCN(c2ccc(NC(=O)c3ccc(C)c(Oc4nc(-c5ccncc5)nc5ccn(C)c45)c3)cc2C(F)(F)F)CC1', 1460),
  ('Cc1ccc(C(=O)Nc2ccc(CN3CCN(C)CC3)c(C(F)(F)F)c2)cc1Oc1nc(-c2ccncc2)nc2c1ncn2C', 1050),
  ('Cc1ccc(NC(=O)c2ccc(CN3CCN(C)CC3)c(C(F)(F)F)c2)cc1Oc1nc(-c2ccncc2)nc2ccn(C)c12', 1330),
  ('CC(C)n1cnc2c(Oc3cccc(NC(=O)c4ccc(CN5CCN(C)CC5)c(C(F)(F)F)c4)c3)nc(-c3ccncc3)nc21', 2290);
